Data provenance is paper PMC10447463.

Tested on: HIV-1 infection of TZM-bl cells
assayMethodText: HIV-1 infectivity enhancement assay, β-galactosidase luminescence
Assay type: cell-based
testParameters: Feb2021; 1.3 µM value relative to virus only (0 µM)
n-fold to virus (Feb2021) overview
Quick one: just the number, no unit, thanks!

These solved cases illustrate the format of a correct answer.
CKIKIQI [MG3b] : 42.81
CKYKYQY [KB2] : 1.711
CKAKAQA [TM155] : 1.325

Exercise: What n-fold to virus (Feb2021) value was documented for this substance, CKAKAQANMWQ [BL8] ?
Key: 1.837

Exercise: What does the record list as n-fold to virus (Feb2021) for CEFEFQFNMWQ [TM140] ?
Key: 5.923

Exercise: Need n-fold to virus (Feb2021), item MKIKIQINMWQ [TM52]
Key: 17.6

Exercise: Which n-fold to virus (Feb2021) value belongs to QCKFKFQFNM [CK8] ?
Key: 21.52

Exercise: Name the reported n-fold to virus (Feb2021) value associated with the substance KFKFQF [JJA6]
Key: 2.575

Exercise: n-fold to virus (Feb2021) for CKWKWQW [KB4] ?
Key: 10.67

Exercise: Would you mind telling me what n-fold to virus (Feb2021) value was observed for QCKAKAQA [CK24] ?
Key: 1.061

Exercise: Fill blank: measured n-fold to virus (Feb2021) of the substance CSISIQI [TM141] is ____.
Key: 2.35
